I'd appreciate it if you could supply viability, T/C values for the items below.
System: 883617-216-R-J1-PDC complex spheroid viability;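 further: spheroids exposed to compounds for seven days before readout; 100% = DMSO vehicle control viability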
run-description: Anticancer human tumor 883617-216-R-J1-PDC patient-derived bladder carcinoma cell line growth inhibition [POLQ]
experimental-setup: second compound 10 µM; first compound 0.01 µM; stronger effect = lower value
The reply should contain only the number, in %.

Prompt line: Entry C=CCn1c(=O)c2cnc(Nc3ccc(N4CCN(C)CC4)cc3)nc2n1-c1cccc(C(C)(C)O)n1 + Nc1ccc(C#CCN(C(=O)Cc2ncc(C(F)(F)F)cc2C(F)(F)F)c2ccc(F)cc2)nn1 needs its viability, T/C filled in; supply it.
Response line: 101

Prompt line: Entry CC[C@@]1(O)C(=O)OCc2c1cc1n(c2=O)Cc2cc3c(CN(C)C)c(O)ccc3nc2-1 + COC1C(OC(N)=O)C(O)C(Oc2ccc3c(O)c(NC(=O)c4ccc(O)c(CC=C(C)C)c4)c(=O)oc3c2C)OC1(C)C needs its viability, T/C filled in; supply it.
Response line: 88

Prompt line: Entry CC[C@@]1(O)C(=O)OCc2c1cc1n(c2=O)Cc2cc3c(CN(C)C)c(O)ccc3nc2-1 + Cc1cccc(N(C)C(=O)C2C(O)CCN2c2nc(C)cc(C(F)(F)F)c2C#N)c1 needs its viability, T/C filled in; supply it.
Response line: 79.5

Prompt line: Entry Cn1ncnc1[C@H]1c2n[nH]c(=O)c3cc(F)cc(c23)N[C@@H]1c1ccc(F)cc1 + Nc1ccc(C#CCN(C(=O)Cc2ncc(C(F)(F)F)cc2C(F)(F)F)c2ccc(F)cc2)nn1 needs its viability, T/C filled in; supply it.
Response line: 95.8

Prompt line: Entry CCc1c2c(nc3ccc(O)cc13)-c1cc3c(c(=O)n1C2)COC(=O)[C@]3(O)CC + Cc1cccc(N(C)C(=O)C2C(O)CCN2c2nc(C)cc(C(F)(F)F)c2C#N)c1 needs its viability, T/C filled in; supply it.
Response line: 70.5

Prompt line: Entry COc1cccc(OCCCN)c1-c1cc(Nc2cnc(C#N)cn2)n[nH]1 + Cc1cccc(N(C)C(=O)C2C(O)CCN2c2nc(C)cc(C(F)(F)F)c2C#N)c1 needs its viability, T/C filled in; supply it.
Response line: 83.5

Prompt line: Entry C=CCn1c(=O)c2cnc(Nc3ccc(N4CCN(C)CC4)cc3)nc2n1-c1cccc(C(C)(C)O)n1 + Cc1cccc(N(C)C(=O)C2C(O)CCN2c2nc(C)cc(C(F)(F)F)c2C#N)c1 needs its viability, T/C filled in; supply it.
Response line: 108

Prompt line: Entry CC[C@@]1(O)C(=O)OCc2c1cc1n(c2=O)Cc2cc3c(CN(C)C)c(O)ccc3nc2-1 + Nc1ccc(C#CCN(C(=O)Cc2ncc(C(F)(F)F)cc2C(F)(F)F)c2ccc(F)cc2)nn1 needs its viability, T/C filled in; supply it.
Response line: 95

Prompt line: Entry COc1cccc(OCCCN)c1-c1cc(Nc2cnc(C#N)cn2)n[nH]1 + Nc1ccc(C#CCN(C(=O)Cc2ncc(C(F)(F)F)cc2C(F)(F)F)c2ccc(F)cc2)nn1 needs its viability, T/C filled in; supply it.
Response line: 89.8

Prompt line: Entry C=CCn1c(=O)c2cnc(Nc3ccc(N4CCN(C)CC4)cc3)nc2n1-c1cccc(C(C)(C)O)n1 + COC1C(OC(N)=O)C(O)C(Oc2ccc3c(O)c(NC(=O)c4ccc(O)c(CC=C(C)C)c4)c(=O)oc3c2C)OC1(C)C needs its viability, T/C filled in; supply it.
Response line: 87.1

Prompt line: Entry COc1cccc(OCCCN)c1-c1cc(Nc2cnc(C#N)cn2)n[nH]1 + COC1C(OC(N)=O)C(O)C(Oc2ccc3c(O)c(NC(=O)c4ccc(O)c(CC=C(C)C)c4)c(=O)oc3c2C)OC1(C)C needs its viability, T/C filled in; supply it.
Response line: 75.2

Prompt line: Entry CCc1c2c(nc3ccc(O)cc13)-c1cc3c(c(=O)n1C2)COC(=O)[C@]3(O)CC + Nc1ccc(C#CCN(C(=O)Cc2ncc(C(F)(F)F)cc2C(F)(F)F)c2ccc(F)cc2)nn1 needs its viability, T/C filled in; supply it.
Response line: 89.1

Prompt line: Entry CCc1c2c(nc3ccc(O)cc13)-c1cc3c(c(=O)n1C2)COC(=O)[C@]3(O)CC + COC1C(OC(N)=O)C(O)C(Oc2ccc3c(O)c(NC(=O)c4ccc(O)c(CC=C(C)C)c4)c(=O)oc3c2C)OC1(C)C needs its viability, T/C filled in; supply it.
Response line: 56

Prompt line: Entry Cn1ncnc1[C@H]1c2n[nH]c(=O)c3cc(F)cc(c23)N[C@@H]1c1ccc(F)cc1 + Cc1cccc(N(C)C(=O)C2C(O)CCN2c2nc(C)cc(C(F)(F)F)c2C#N)c1 needs its viability, T/C filled in; supply it.
Response line: 90.8

Prompt line: Entry Cn1ncnc1[C@H]1c2n[nH]c(=O)c3cc(F)cc(c23)N[C@@H]1c1ccc(F)cc1 + COC1C(OC(N)=O)C(O)C(Oc2ccc3c(O)c(NC(=O)c4ccc(O)c(CC=C(C)C)c4)c(=O)oc3c2C)OC1(C)C needs its viability, T/C filled in; supply it.
Response line: 71.6
